PROTOCOL TEXT: MTT viability assay, KMS-20
Assay type: cell-based
PARTICULARS: human, KMS-20 multiple myeloma cells, LACZ-transfected; read-out: 48 hour viability (MTT, normalized to LACZ+DMSO)
PROPERTY MEASURED: viability at 48 h, 10 µM (%)
Please give a number only; it is taken to be in %.

Task item: Return reported viability at 48 h, 10 µM. Input compound: Cc1ccc(NC(=O)c2ccc(CN3CCN(C)CC3)cc2)cc1Nc1nccc(-c2cccnc2)n1
Reply: 103

---

PROTOCOL TEXT: MTT viability assay, U266
Format: cell-based
PARTICULARS: human, U266 multiple myeloma cells, 10 μM, 24 h, read-out: 24 hour viability (MTT, normalized to DMSO)
So I've got a bunch of compounds here, and I need their viability at 24 h, 10 µM values.
Please give a number only; it is taken to be in %.

Task item: Return reported viability at 24 h, 10 µM. Input compound: COc1cc(Nc2c(C#N)cnc3cc(OCCCN4CCN(C)CC4)c(OC)cc23)c(Cl)cc1Cl
Reply: 93.8

Task item: Return reported viability at 24 h, 10 µM. Input compound: CCOc1cc2ncc(C#N)c(Nc3ccc(OCc4ccccn4)c(Cl)c3)c2cc1NC(=O)/C=C/CN(C)C
Reply: 98.2

---

So I've got a bunch of compounds here, and I need their viability at 96 h, 10 µM values.
PROTOCOL TEXT: MTT viability assay, U266
Type: cell-based
PARTICULARS: human, U266 multiple myeloma cells, 10 μM, 96 h, read-out: 96 hour viability (MTT, normalized to DMSO)
Please give a number only; it is taken to be in %.

Task item: Return reported viability at 96 h, 10 µM. Input compound: COc1cc(Nc2c(C#N)cnc3cc(OCCCN4CCN(C)CC4)c(OC)cc23)c(Cl)cc1Cl
Reply: 28.5

Task item: Return reported viability at 96 h, 10 µM. Input compound: CCOc1cc2ncc(C#N)c(Nc3ccc(OCc4ccccn4)c(Cl)c3)c2cc1NC(=O)/C=C/CN(C)C
Reply: 17.9

---

So I've got a bunch of molecules here, and I need their viability at 48 h, 10 µM values.
PROTOCOL TEXT: MTT viability assay, U266
Assay type: cell-based
PARTICULARS: human, U266 multiple myeloma cells, 10 μM, 48 h, read-out: 48 hour viability (MTT, normalized to DMSO)

Task item: Return reported viability at 48 h, 10 µM. Input molecule: CCOc1cc2ncc(C#N)c(Nc3ccc(OCc4ccccn4)c(Cl)c3)c2cc1NC(=O)/C=C/CN(C)C
Reply: 87.8%

Task item: Return reported viability at 48 h, 10 µM. Input molecule: COc1cc(Nc2c(C#N)cnc3cc(OCCCN4CCN(C)CC4)c(OC)cc23)c(Cl)cc1Cl
Reply: 76.1%

---

Target protein (sequence): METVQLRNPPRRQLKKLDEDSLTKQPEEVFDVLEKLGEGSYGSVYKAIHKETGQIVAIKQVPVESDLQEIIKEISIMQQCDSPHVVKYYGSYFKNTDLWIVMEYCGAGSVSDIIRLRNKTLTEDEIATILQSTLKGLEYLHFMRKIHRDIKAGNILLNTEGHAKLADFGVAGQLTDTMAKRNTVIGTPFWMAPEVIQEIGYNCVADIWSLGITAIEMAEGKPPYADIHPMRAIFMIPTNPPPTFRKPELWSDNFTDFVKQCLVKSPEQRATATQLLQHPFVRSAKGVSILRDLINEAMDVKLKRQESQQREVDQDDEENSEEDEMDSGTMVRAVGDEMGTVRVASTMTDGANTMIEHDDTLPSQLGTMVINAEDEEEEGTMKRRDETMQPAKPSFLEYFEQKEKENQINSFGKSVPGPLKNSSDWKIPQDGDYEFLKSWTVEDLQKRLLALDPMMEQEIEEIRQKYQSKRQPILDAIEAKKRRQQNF
PROPERTY MEASURED: IC50 (nM)
Please give a number only; it is taken to be in nM.

Task item: Return reported IC50. Input compound: NS(=O)(=O)c1ccc(N/N=C2\C(=O)Nc3ccc4ncccc4c32)cc1 [GW305178X]
Reply: 12

Where do the numbers come from? From patent US10017767B2.
